Test system: CAKI-1 renal
protocol.summary: NCI tumour cell line growth inhibition, 48 h
test.readout: TGI

Worked cases, TGI given:
molecule	assay.value
O=C(/C=C\c1cccc([N+](=O)[O-])c1)/C=C/c1cccc([N+](=O)[O-])c1	> 100 µM
CCCCCCCOc1ccc(/C=C\c2cc[n+](CCCCCCCC[n+]3ccc(/C=C\c4ccc(OCCCCCCC)cc4)cc3)cc2)cc1	63.7 µM
CCC(C=O)P1(=O)OC(C)(C)CN1C(C)(C)C (stereo not given)	> 100 µM
CC1=NNC(=O)C1C1CC(c2c[nH]c3ccccc23)=NNC1=O (stereo not given)	> 100 µM

Turning now to a further record.
Value sought: TGI, system CAKI-1 renal, item "COc1cc2c3c(n(C)c(=O)c2cc1OC)-c1cc2c(cc1/C3=C\CCCCN1C(=O)c3ccccc3C1=O)OCO2" . Result: 35.4 µM

* * *

System: 786-0 renal
protocol.summary: NCI tumour cell line growth inhibition, 48 h; in the data active = GI50 below about 0.43 µM; inactive = the rest
Would you mind answering with one of these outcomes? yes (active), no (inactive)

molecule	experimental.system	category.label
O=C1CCC(N2Cc3cc(CNC(=O)C(F)(F)c4ccc(Cl)cc4)ccc3C2=O)C(=O)N1 (stereo not given)	786-0 renal	no
O=C1C(=C([O-])c2ccccc2)C(=O)c2ccccc21.O=C1C(=C([O-])c2ccccc2)C(=O)c2ccccc21.[Fe+2]	786-0 renal	no
COc1cc2c(cc1OCCCn1c(-c3ccccn3)nc3ccccc31)N=C[C@@H]1CCCN1C2=O	786-0 renal	no

Enquiry: Per the records of this test, what outcome belongs to "CCOc1ccccc1C(=O)N1CCN(c2cc(Cl)cc(Cl)c2)CC1" ?
Return: yes

Enquiry: Per the records of this test, what outcome belongs to "O=C1c2cccnc2C(=O)c2c1c(C(=O)NCCCN1CCCCC1)c1ccccn21" ?
Return: no

* * *

Tested on: CCRF-CEM leukemia
protocol.summary: NCI tumour cell line growth inhibition, 48 h
I'd be grateful if you could share measured TGI for these entries.

Worked cases, TGI given:
compound	experimental.system	assay.value
COC(=O)C1CC2CC(=NNC(N)=O)CC2C1 (stereo not drawn)	CCRF-CEM leukemia	> 100 µM
C/C(=C\c1ccc2ccccc2c1)[N+](=O)[O-]	CCRF-CEM leukemia	5.65 µM
O=C1c2c(c3c4ccccc4[nH]c3c3ccc4ccccc4c23)C(=O)N1CCN1CCNCC1	CCRF-CEM leukemia	4.22 µM
CCOC(=O)C1C(=S)NC(=O)C1C#N (stereo not drawn)	CCRF-CEM leukemia	> 100 µM
O=C1OCC2=C1C(c1ccccc1)c1cc3c(cc1N2)OCO3 (stereo not drawn)	CCRF-CEM leukemia	> 100 µM
O=c1[nH]cc(COCCCO)c(=O)[nH]1	CCRF-CEM leukemia	> 100 µM
COC(=O)[C@@H]1CC(C(C[N+](=O)[O-])c2ccc(O[Si](C)(C)C(C)(C)C)cc2)C(=O)N1C(=O)OC(C)(C)C (stereo partly drawn)	CCRF-CEM leukemia	> 100 µM
O=C1C(=C([O-])c2ccccc2)C(=O)c2ccccc21.O=C1C(=C([O-])c2ccccc2)C(=O)c2ccccc21.[Fe+2]	CCRF-CEM leukemia	> 100 µM

For each of the items listed, what is its TGI?
1. O=C1c2ccccc2-c2cc([N+](=O)[O-])c([N+](=O)[O-])cc21
2. Cc1cc(S(=O)(=O)/N=C(/N)Nc2ccccc2O)c(SCc2ccccc2)cc1Cl
3. CCc1ccc2c(c1)N(CCO)C1=C(C(=O)OC1)C2c1cccc(Br)c1 (stereo not drawn)
4. CC(C)(C)c1cc2c(OC/C=C/c3ccccc3)c(c1)Cc1cc(C(C#N)(OC/C=C/c3ccccc3)OC/C=C/c3ccccc3)cc(c1OC/C=C\c1ccccc1)Cc1cc(C(C)(C)C)cc(c1OC/C=C/c1ccccc1)Cc1cc(C(C#N)(OC/C=C\c3ccccc3)OC/C=C/c3ccccc3)cc(c1OC/C=C\c1ccccc1)C2 (stereo not drawn)
5. CN[C@@H](C)C(=O)N[C@H](C(=O)N1CCC[C@H]1C(=O)Nc1sc(-c2ncco2)nc1-c1ccccc1)C1CCCCC1
6. C=CC[C@@H](N)C(=O)N(C)[C@@H](C)[C@@H](O)c1ccccc1
7. Nc1n[n+](CC(=O)c2ccccc2)c2sc(-c3ccccc3)nn12
8. CCCCCCCOc1ccc(/C=C\c2cc[n+](CCCCCCCC[n+]3ccc(/C=C\c4ccc(OCCCCCCC)cc4)cc3)cc2)cc1

Return:
["0.958 µM", "39.8 µM", "15.6 µM", "> 100 µM", "> 100 µM", "> 100 µM", "> 100 µM", "> 100 µM"]

For each of the items listed, what is its TGI?
1. O=[N+]([O-])c1ccc(C=Cc2ccccc2)cc1.[C-]#[O+].[C-]#[O+].[C-]#[O+].[Cr]
2. CS(=O)(=O)c1ccc(-c2cc(-c3ccc(S(C)(=O)=O)cc3)[n+](-c3cc(-c4ccc(S(C)(=O)=O)cc4)c([O-])c(-c4ccc(S(C)(=O)=O)cc4)c3)c(-c3ccc(S(C)(=O)=O)cc3)c2)cc1

Return:
1. > 100 µM
2. > 100 µM
